# ASSAY NOTES: Oral bioavailability in beagle dog at 10 mg/kg administered as single dose
# Type: ADME, organism-based, Canis lupus familiaris
# CONDITION CONTEXT: in vivo
ENDPOINT NAME: bioavailability
Note: a bare number is incomplete; add the unit.

[Q] State the recorded bioavailability for this entry: CN(C)C(=O)c1ccc(-c2ccc3c(c2)CCN(CCN2CCCC2)C3=O)cc1.Cl
[A] 57%

* * *

# Ki listing for each entry below
# TARGET UNDER TEST: 5-hydroxytryptamine receptor 2B (Homo sapiens)
# Sequence (P41595 whole entry): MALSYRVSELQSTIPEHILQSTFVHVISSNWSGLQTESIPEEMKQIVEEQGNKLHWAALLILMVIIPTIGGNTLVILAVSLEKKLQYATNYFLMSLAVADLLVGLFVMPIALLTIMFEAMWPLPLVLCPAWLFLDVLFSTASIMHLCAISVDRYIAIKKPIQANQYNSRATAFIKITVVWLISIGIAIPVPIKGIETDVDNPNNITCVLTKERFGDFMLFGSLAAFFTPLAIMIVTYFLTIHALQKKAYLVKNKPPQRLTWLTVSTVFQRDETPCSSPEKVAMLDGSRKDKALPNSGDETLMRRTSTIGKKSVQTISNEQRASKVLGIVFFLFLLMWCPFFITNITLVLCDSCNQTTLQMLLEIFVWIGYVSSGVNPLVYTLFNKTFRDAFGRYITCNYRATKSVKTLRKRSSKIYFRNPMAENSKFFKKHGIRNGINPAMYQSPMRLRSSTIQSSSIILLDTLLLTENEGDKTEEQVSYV

Record excerpt, results attached:
{"columns": ["SMILES STRUCTURE", "Ki"],
 "data": [
  ["CCNC(=O)c1ccc(-c2ccc3c(c2)CCN(CCN2CCC[C@H]2C)C3=O)cc1", "> 10 µM"],
  ["O=C(NC1CCCC1)c1ccc(-c2ccc3c(c2)CCN(CCN2CCCC2)C3=O)cc1", "> 10 µM"],
  ["C[C@H]1CCCN1C(=O)c1ccc(-c2ccc3c(c2)CCN(CCN2CCCC2)C3=O)cc1", "> 10 µM"]
]}

[Q] Give Ki (5-hydroxytryptamine receptor 2B (Homo sapiens)) of the following compound: C[C@@H]1CCCN1CCN1CCc2cc(-c3ccc(C(=O)N4CCCC4)cc3)ccc2C1=O
[A] > 10 µM

[Q] Which Ki is reported with 5-hydroxytryptamine receptor 2B (Homo sapiens) for this entry: CN(C)C(=O)c1ccc(-c2ccc3c(c2)CCN(CCN2CCCC2)C3=O)cc1 ?
[A] > 10 µM

[Q] Observed Ki on 5-hydroxytryptamine receptor 2B (Homo sapiens) for C[C@@H]1CCCN1C(=O)c1ccc(-c2ccc3c(c2)CCN(CCN2CCCC2)C3=O)cc1 , please.
[A] > 10 µM
